- Target Of Assay: human GABAA α5β2γ1 receptor (Homo sapiens (Human), UniProt P31644+Q8N1C3)
- Test Method Notes: Radioligand binding assay, competition for [3H]RO7239181, γ1-containing GABAA subtype α5β2γ1
- Assay Setup: membranes of HEK293F cells, [3H]RO7239181 1.5 nM, mean of two determinations; read-out: Ki h-GABAA α5β2γ1
Listing of entries alongside the reported pKi.
Field pKi (float): negative decimal logarithm of the concentration in molar.

The cases that follow already have their pKi on record.
Compound	Reported Value
C[C@@H]1N=C(c2c(F)cccc2F)c2c(ccc(C(F)(F)F)c2Cl)-n2cc(C(=O)NC3CC3)c(=O)nc21 [Example 28]	8.13
CCOCCc1cn2c(nc1=O)CN=C(c1c(F)cccc1F)c1c-2ccc(C(F)(F)F)c1Cl [Example 26]	7.67
CCOCCc1cn2c(nc1=O)[C@H](C)N=C(c1c(F)cccc1F)c1c-2ccc(Cl)c1Cl [Example 21]	8.47

Req: Name the value of pKi reported for CCO/C=C/c1cn2c(nc1=O)CN=C(c1c(F)cccc1F)c1c-2ccc(C(F)(F)F)c1Cl [Example 25] when tested on human GABAA α5β2γ1 receptor (Homo sapiens (Human), UniProt P31644+Q8N1C3).
Resp: 8.03

Values from patent US20240287082A1
